- TARGET_ENTITY: c-ABL protein (Homo sapiens)
- Sequence (P00519 whole entry): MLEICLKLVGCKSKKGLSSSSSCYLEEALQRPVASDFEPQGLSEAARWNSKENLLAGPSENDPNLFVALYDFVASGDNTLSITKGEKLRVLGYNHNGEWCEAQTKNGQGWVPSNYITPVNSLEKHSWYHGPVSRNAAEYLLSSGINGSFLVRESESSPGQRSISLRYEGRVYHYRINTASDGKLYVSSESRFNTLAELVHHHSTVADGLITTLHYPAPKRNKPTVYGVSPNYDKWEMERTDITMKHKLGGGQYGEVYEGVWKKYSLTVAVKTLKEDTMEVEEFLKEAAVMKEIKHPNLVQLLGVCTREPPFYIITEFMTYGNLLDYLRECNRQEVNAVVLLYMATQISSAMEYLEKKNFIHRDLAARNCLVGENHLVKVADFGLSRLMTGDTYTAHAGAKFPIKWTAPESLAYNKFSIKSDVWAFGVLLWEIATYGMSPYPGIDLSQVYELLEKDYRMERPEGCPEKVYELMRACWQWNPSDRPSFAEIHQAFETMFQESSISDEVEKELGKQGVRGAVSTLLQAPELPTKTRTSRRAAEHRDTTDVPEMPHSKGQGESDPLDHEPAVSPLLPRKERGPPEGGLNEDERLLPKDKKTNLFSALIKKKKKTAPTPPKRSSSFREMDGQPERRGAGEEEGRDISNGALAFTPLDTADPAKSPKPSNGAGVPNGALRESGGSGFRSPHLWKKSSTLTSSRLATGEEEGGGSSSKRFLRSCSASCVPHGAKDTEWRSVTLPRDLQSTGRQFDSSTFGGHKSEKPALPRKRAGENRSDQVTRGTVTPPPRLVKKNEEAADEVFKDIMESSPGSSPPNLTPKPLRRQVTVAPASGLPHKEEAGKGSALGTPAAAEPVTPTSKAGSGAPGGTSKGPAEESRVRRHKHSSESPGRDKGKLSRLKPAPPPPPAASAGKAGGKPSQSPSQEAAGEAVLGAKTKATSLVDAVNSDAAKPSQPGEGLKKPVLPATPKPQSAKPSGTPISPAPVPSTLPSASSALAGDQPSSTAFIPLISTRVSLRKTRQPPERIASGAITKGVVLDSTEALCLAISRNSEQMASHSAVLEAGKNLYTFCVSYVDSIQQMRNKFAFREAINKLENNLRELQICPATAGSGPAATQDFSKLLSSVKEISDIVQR
- ASSAY_NAME: Western blot degradation of c-ABL in K562 cells
- Assay type: cell-based
- Parameters: Western blot was used to detect the expression of BCR-ABL and c-ABL protein in K562 cells; endogenous in cells; host or cells: K562
- CONDITION_DESCRIPTION: 16 hours, 1 nM-10 μM
Collected DC50 values appear next to each entry.

So, Cc1nc(Nc2ncc(C(=O)Nc3c(C)cccc3Cl)s2)cc(N2CCN(C(=O)CCCNc3cccc4c3C(=O)N(C3CCC(=O)NC3=O)C4=O)CC2)n1 (centres unmarked) [SIAIS151070] ? Its DC50 was 1 to 10 nM

compound COc1cc(Nc2c(C#N)cnc3cc(OCCCN4CCN(C(=O)CCCCCCNc5cccc6c5C(=O)N(C5CCC(=O)NC5=O)C6=O)CC4)c(OC)cc23)c(Cl)cc1Cl (centres unmarked) [SIAIS151167] , DC50 observed: 10 to 100 nM

Noted for Cc1nc(Nc2ncc(C(=O)Nc3c(C)cccc3Cl)s2)cc(N2CCN(C(=O)CCCCCCCC(=O)N[C@H](C(=O)N3C[C@H](O)C[C@H]3C(=O)NCc3ccc(-c4scnc4C)cc3)C(C)(C)C)CC2)n1 [SIAIS151179] : its DC50 reads 100 to 1000 nM

###

- TARGET_ENTITY: BCR-ABL protein (Homo sapiens, UniProt P00519)
- Sequence (P00519 with tags, fused parts or gaps): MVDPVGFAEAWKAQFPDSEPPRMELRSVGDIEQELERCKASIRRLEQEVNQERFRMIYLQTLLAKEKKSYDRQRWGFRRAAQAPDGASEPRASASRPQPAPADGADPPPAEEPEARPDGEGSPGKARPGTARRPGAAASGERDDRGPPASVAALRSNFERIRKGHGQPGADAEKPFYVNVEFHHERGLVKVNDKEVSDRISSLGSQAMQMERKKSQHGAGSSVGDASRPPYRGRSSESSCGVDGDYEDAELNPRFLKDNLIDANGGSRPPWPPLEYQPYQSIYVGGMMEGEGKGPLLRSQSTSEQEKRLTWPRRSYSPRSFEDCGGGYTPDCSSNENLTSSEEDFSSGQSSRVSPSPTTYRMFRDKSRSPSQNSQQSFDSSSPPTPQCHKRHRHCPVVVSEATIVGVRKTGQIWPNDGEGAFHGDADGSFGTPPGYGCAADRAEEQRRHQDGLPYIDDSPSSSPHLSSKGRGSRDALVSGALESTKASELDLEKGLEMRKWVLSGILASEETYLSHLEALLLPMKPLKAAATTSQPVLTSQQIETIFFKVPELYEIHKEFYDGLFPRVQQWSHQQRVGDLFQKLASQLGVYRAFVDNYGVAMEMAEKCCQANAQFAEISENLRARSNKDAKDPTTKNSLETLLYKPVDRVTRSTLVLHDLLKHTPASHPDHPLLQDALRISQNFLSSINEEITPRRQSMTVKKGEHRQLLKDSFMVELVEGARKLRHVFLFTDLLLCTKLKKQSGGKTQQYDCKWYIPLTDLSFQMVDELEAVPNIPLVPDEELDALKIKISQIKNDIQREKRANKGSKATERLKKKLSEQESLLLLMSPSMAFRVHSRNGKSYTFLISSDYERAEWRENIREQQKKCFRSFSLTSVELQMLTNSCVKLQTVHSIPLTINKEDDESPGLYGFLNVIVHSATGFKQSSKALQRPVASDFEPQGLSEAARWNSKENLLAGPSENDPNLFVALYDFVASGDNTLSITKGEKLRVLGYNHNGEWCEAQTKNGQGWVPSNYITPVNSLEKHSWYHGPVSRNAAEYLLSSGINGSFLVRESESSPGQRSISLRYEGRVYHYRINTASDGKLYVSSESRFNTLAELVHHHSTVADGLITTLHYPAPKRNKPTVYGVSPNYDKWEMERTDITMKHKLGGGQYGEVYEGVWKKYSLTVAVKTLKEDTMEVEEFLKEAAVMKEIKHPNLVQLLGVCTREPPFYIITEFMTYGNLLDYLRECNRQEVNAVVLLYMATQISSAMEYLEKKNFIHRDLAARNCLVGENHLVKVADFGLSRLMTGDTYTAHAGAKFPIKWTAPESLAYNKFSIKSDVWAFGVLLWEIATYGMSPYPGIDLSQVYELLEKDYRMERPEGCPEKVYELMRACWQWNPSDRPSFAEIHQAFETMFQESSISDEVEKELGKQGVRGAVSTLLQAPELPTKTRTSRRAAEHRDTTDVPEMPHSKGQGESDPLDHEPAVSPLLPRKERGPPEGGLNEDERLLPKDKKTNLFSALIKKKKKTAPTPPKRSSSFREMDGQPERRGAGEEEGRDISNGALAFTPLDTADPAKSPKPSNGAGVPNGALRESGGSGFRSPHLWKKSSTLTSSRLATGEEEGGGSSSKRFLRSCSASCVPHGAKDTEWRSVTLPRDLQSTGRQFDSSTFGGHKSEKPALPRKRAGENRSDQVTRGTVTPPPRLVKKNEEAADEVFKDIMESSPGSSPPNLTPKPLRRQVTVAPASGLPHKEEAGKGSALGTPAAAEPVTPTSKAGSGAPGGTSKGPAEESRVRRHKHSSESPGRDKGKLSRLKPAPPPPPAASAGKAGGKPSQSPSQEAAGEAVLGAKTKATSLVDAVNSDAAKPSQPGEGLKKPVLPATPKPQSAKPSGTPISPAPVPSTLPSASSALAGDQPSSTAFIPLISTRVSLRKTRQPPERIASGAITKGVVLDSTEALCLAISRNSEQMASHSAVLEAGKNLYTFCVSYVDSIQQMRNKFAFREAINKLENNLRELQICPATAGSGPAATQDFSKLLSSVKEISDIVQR
- ASSAY_NAME: Western blot degradation of BCR-ABL in K562 cells
- Format: cell-based
- Parameters: Western blot was used to detect the expression of BCR-ABL and c-ABL protein in K562 cells; BCR (fusion partner, P11274); endogenous in cells; host or cells: K562; the other entry of the earlier key: BCR (P11274, Breakpoint cluster region protein)
- CONDITION_DESCRIPTION: 16 hours, 1 nM-10 μM
This section presents compounds with their documented DC50 values.

Use these answered entries as a reference point.
COMPOUND: Cc1nc(Nc2ncc(C(=O)Nc3c(C)cccc3Cl)s2)cc(N2CCN(C(=O)CCc3cccc4c3C(=O)N(C3CCC(=O)NC3=O)C4=O)CC2)n1 (centres unmarked) [SIAIS172150]
TARGET_ENTITY: BCR-ABL protein (Homo sapiens, UniProt P00519)
DC50: 10 to 100 nM

COMPOUND: Cc1ccc(NC(=O)c2ccc(CN3CCN(C(=O)CCCCCCC(=O)N[C@H](C(=O)N4C[C@H](O)C[C@H]4C(=O)NCc4ccc(-c5scnc5C)cc4)C(C)(C)C)CC3)cc2)cc1Nc1nccc(-c2cccnc2)n1 [SIAIS074031]
TARGET_ENTITY: BCR-ABL protein (Homo sapiens, UniProt P00519)
DC50: 100 to 1000 nM

COMPOUND: COc1cc(Nc2c(C#N)cnc3cc(OCCCN4CCN(C(=O)CCCCCCNc5cccc6c5C(=O)N(C5CCC(=O)NC5=O)C6=O)CC4)c(OC)cc23)c(Cl)cc1Cl (centres unmarked) [SIAIS151167]
TARGET_ENTITY: BCR-ABL protein (Homo sapiens, UniProt P00519)
DC50: 10 to 100 nM

Consider Cc1nc(Nc2ncc(C(=O)Nc3c(C)cccc3Cl)s2)cc(N2CCN(C(=O)CCCCCCCC(=O)N[C@H](C(=O)N3C[C@H](O)C[C@H]3C(=O)NCc3ccc(-c4scnc4C)cc3)C(C)(C)C)CC2)n1 [SIAIS151179] . Its measured DC50 is 10 to 100 nM

The compound identified as Cc1nc(Nc2ncc(C(=O)Nc3c(C)cccc3Cl)s2)cc(N2CCN(C(=O)CNc3cccc4c3C(=O)N(C3CCC(=O)NC3=O)C4=O)CC2)n1 (centres unmarked) [SIAIS151072] registered its DC50 at < 1 nM
